Entries with their measured IC50, system DGAT1 (Homo sapiens, UniProt O75907):
measuredParameter: IC50

>>> result("O=C(O)CCc1ccc(-c2csc3c(-c4ccc(NC(=O)Nc5cccc(C(F)(F)F)c5F)cc4)ncnc23)cc1")
"< 5 nM"
>>> result("CC(C)(C(=O)O)c1ccc(-c2csc3c(-c4ccc(NC(=O)Nc5cccc(Cl)c5)cc4)ncnc23)cc1")
"< 1 nM"
>>> result("NC(=O)CCc1ccc(-c2csc3c(-c4ccc(NC(=O)Nc5cccc(Cl)c5)cc4)ncnc23)cc1")
"< 5 nM"
>>> result("Cc1ccc(NC(=O)Nc2ccc(-c3ncnc4c(-c5ccc(CCC(=O)O)cc5)csc34)cc2)cc1")
"< 1 nM"
>>> result("Cn1cc(-c2ccc(CCC(=O)O)cc2)c2ncnc(-c3ccc(NC(=O)Nc4ccccc4Cl)cc3)c21")
"< 50 nM"
>>> result("O=C(O)CCc1ccc(-c2csc3c(-c4ccc(NC(=O)Nc5ccc(-n6cnnc6)cc5)cc4)ncnc23)cc1")
"< 50 nM"
>>> result("O=C(O)Cc1ccc(-c2csc3c(-c4ccc(NC(=O)NC5CCCCC5)cc4)ncnc23)cc1")
"< 1 nM"
>>> result("O=C(O)CCc1ccc(-c2csc3c(-c4ccc(NC(=O)Nc5cccc(Cl)c5)cc4)ncnc23)cc1F")
"< 1 nM"
>>> result("O=C(O)CCc1ccc(-c2csc3c(-c4ccc(NC(=O)Nc5ccc(N6CCCC6)cc5)cc4)ncnc23)cc1")
"< 1 nM"
>>> result("O=C(O)Cc1ccc(-c2csc3c(-c4ccc(NC(=O)Nc5ccnc(Cl)c5)cc4)ncnc23)cc1")
"< 10 nM"
>>> result("O=C(O)CCc1ccc(-c2csc3c(-c4ccc(NC(=O)Nc5cccc(Cl)c5)cc4)ncnc23)cc1")
"< 1 nM"
>>> result("O=C(O)Cc1ccc(-c2csc3c(-c4ccc(NC(=O)Nc5ccccc5)cc4)ncnc23)cc1")
"< 5 nM"
>>> result("O=C(O)CCc1ccc(-c2csc3c(-c4ccc(NC(=O)Nc5ccc(F)c(F)c5)cc4)ncnc23)cc1")
"< 5 nM"
>>> result("O=C(O)Cc1ccc(-c2csc3c(-c4ccc(NC(=O)Nc5ccc(F)c(F)c5)cc4)ncnc23)cc1")
"< 1 nM"
